- assayedSystem: Bromodomain testis-specific protein (Homo sapiens)
- measurementDescription: Inhibition of recombinant human BRDT-1 (21 to 137 residues) expressed in bacterial expression system by bromoscan assay
measuredMetric: log10 Kd (log10 of the value in nM)

smilesNotation	assayedSystem	log10 Kd
Cc1cnc(Nc2ccc(C(=O)NC3CCN(C(=O)COCCOCCOCC(=O)N4CCC(NC(=O)c5ccc(Nc6ncc(C)c(Nc7ccc(Cl)c(NS(=O)(=O)C(C)(C)C)c7)n6)cc5F)CC4)CC3)c(F)c2)nc1Nc1ccc(Cl)c(NS(=O)(=O)C(C)(C)C)c1	Bromodomain testis-specific protein (Homo sapiens)	-0.22
Cc1cnc(Nc2ccc(C(=O)NC3CCN(C(=O)CCOCCOCCOCCOCCC(=O)N4CCC(NC(=O)c5ccc(Nc6ncc(C)c(Nc7ccc(Cl)c(NS(=O)(=O)C(C)(C)C)c7)n6)cc5F)CC4)CC3)c(F)c2)nc1Nc1ccc(Cl)c(NS(=O)(=O)C(C)(C)C)c1	Bromodomain testis-specific protein (Homo sapiens)	-0.04
CCS(=O)(=O)Nc1ccc(Oc2ccc(Cl)cc2)c(-c2cn(C)c(=O)c3ccccc23)c1	Bromodomain testis-specific protein (Homo sapiens)	0.70
CCS(=O)(=O)Nc1cccc(-c2cn(C)c(=O)c3ccccc23)c1	Bromodomain testis-specific protein (Homo sapiens)	1.89
Cc1cnc(Nc2ccc(C(=O)NC3CCN(C)CC3)c(F)c2)nc1Nc1ccc(Cl)c(NS(=O)(=O)C(C)(C)C)c1	Bromodomain testis-specific protein (Homo sapiens)	0.98

----------
- assayedSystem: Bromodomain testis-specific protein (Homo sapiens)
- measurementDescription: Inhibition of recombinant human BRDT-1 (21 to 137 residues) expressed in bacterial expression system by bromoscan assay
Response field label: string, one of class 1 (Kd strictly below 0.2 nM) or class 0.

smilesNotation	categoryLabel
CCS(=O)(=O)Nc1ccc(OCCOCCOCCOCCOc2ccc(NS(=O)(=O)CC)cc2-c2cn(C)c(=O)c3ccccc23)c(-c2cn(C)c(=O)c3ccccc23)c1	class 1
Cc1cnc(Nc2ccc(C(=O)NC3CCN(C(=O)COCCOCC(=O)N4CCC(NC(=O)c5ccc(Nc6ncc(C)c(Nc7ccc(Cl)c(NS(=O)(=O)C(C)(C)C)c7)n6)cc5F)CC4)CC3)c(F)c2)nc1Nc1ccc(Cl)c(NS(=O)(=O)C(C)(C)C)c1	class 0
Cc1cnc(Nc2ccc(C(=O)NC3CCN(C(=O)CCOCCOCCOCCOCCOCCC(=O)N4CCC(NC(=O)c5ccc(Nc6ncc(C)c(Nc7ccc(Cl)c(NS(=O)(=O)C(C)(C)C)c7)n6)cc5F)CC4)CC3)c(F)c2)nc1Nc1ccc(Cl)c(NS(=O)(=O)C(C)(C)C)c1	class 0
Cn1cc(-c2cccc(N3CCCC3=O)c2)c2ccccc2c1=O	class 0
Cc1cnc(Nc2ccc(C(=O)NC3CCNCC3)c(F)c2)nc1Nc1cc(NS(=O)(=O)C(C)(C)C)cc(C(=O)NCCOCCOCCOCCC(=O)N2CCC(NC(=O)c3ccc(Nc4ncc(C)c(Nc5ccc(Cl)c(NS(=O)(=O)C(C)(C)C)c5)n4)cc3F)CC2)c1	class 1

----------
- measurementDescription: Metabolic stability in pooled mouse liver microsomes assessed as half life
- Assay type: ADME, Microsome
- experimentalConditions: microsomes

smilesNotation	unitInfo	t1/2
Cc1cnc(Nc2ccc(C(=O)NC3CCN(C(=O)CCOCCOCCOCCOCCC(=O)N4CCC(NC(=O)c5ccc(Nc6ncc(C)c(Nc7ccc(Cl)c(NS(=O)(=O)C(C)(C)C)c7)n6)cc5F)CC4)CC3)c(F)c2)nc1Nc1ccc(Cl)c(NS(=O)(=O)C(C)(C)C)c1	min	4.1
CCS(=O)(=O)Nc1ccc(Oc2ccc(Cl)cc2)c(-c2cn(C)c(=O)c3ccccc23)c1	min	74
Cc1cnc(Nc2ccc(C(=O)NC3CCN(C(=O)CCOCCOCCOCCOCCOCCC(=O)N4CCC(NC(=O)c5ccc(Nc6ncc(C)c(Nc7ccc(Cl)c(NS(=O)(=O)C(C)(C)C)c7)n6)cc5F)CC4)CC3)c(F)c2)nc1Nc1ccc(Cl)c(NS(=O)(=O)C(C)(C)C)c1	min	30
Cc1cnc(Nc2ccc(C(=O)NC3CCNCC3)c(F)c2)nc1Nc1cc(NS(=O)(=O)C(C)(C)C)cc(C(=O)NCCOCCOCCOCCC(=O)N2CCC(NC(=O)c3ccc(Nc4ncc(C)c(Nc5ccc(Cl)c(NS(=O)(=O)C(C)(C)C)c5)n4)cc3F)CC2)c1	min	55
